System: T47D
Test: Induction of apoptosis in human T47D cells assessed as caspase activation after 48 hrs by HTS assay
Assay type: functional, cell-based
pEC50: −log10 of the molar value.
parameter.measured: pEC50

O=C(Nc1ccccc1-n1cccn1)c1cccc2c1sc1ccccc12 | 5.68

I. Cc1ccc(C)c(NC(=O)c2cccc3c2Cc2ccccc2-3)c1
II. Nc1ccc2c(c1)C(=O)c1c(C(=O)Nc3ccccc3-n3cccn3)cccc1-2
III. [N-]=[N+]=Nc1ccc2c(c1)C(=O)c1c(C(=O)Nc3ccccc3-n3cccn3)cccc1-2
[Q] Write the entries in order, lowest recorded pEC50 first. Reply with the item labels sorted in the order that was asked for.
[A] I, II, III

###

Test system: T47D
Assay: Induction of apoptosis in human T47D cells assessed as caspase activation after 48 hrs by HTS assay
Format: functional, cell-based
parameter.measured: EC50 (µM)

Examples with answers:
O=C(Nc1ccccc1-n1cccn1)c1cccc2c1Cc1ccccc1-2 | 3.2
O=C(Nc1ccccc1-n1cc(Br)cn1)c1cccc2c1C(=O)c1cc([N+](=O)[O-])ccc1-2 | 1.3
O=C(Nc1ccccc1-n1cccn1)c1cccc2c1C(=O)c1cc([N+](=O)[O-])ccc1-2 | 0.29

A. Cc1ccccc1NC(=O)c1cccc2c1C(O)c1ccccc1-2 (stereo unspecified)
B. Cc1ccccc1NC(=O)c1cccc2c1Cc1ccccc1-2
[Q] Lab note: record which item had the higher EC50, A or B . Lab note: record the label of whichever item you select.
[A] A

###

Tested on: SNU-398
Test: Growth inhibition of human SNU398 cells after 48 hrs
Type: functional
Details: SNU-398, 48 h
parameter.measured: GI50 (nM)

Please review the following examples before continuing.
Nc1ccc2c(c1)C(=O)c1c(C(=O)Nc3ccccc3-n3cccn3)cccc1-2 | 84
O=C(Nc1ccccc1-n1cccn1)c1cccc2c1C(=O)c1cc([N+](=O)[O-])ccc1-2 | 72

P. CC(=O)O[C@H]1C(=O)[C@@]2(C)[C@H]([C@H](OC(=O)c3ccccc3)[C@]3(O)C[C@H](OC(=O)[C@H](O)[C@@H](NC(=O)c4ccccc4)c4ccccc4)C(C)=C1C3(C)C)[C@]1(OC(C)=O)CO[C@@H]1C[C@@H]2O [PACLITAXEL]
Q. O=C(Nc1ccccc1-n1cccn1)c1cccc2c1C(=O)c1ccccc1-2
R. CC[C@]1(O)C[C@@H]2CN(CCc3c([nH]c4ccccc34)[C@@](C(=O)OC)(c3cc4c(cc3OC)N(C)[C@H]3[C@@](O)(C(=O)OC)[C@H](OC(C)=O)[C@]5(CC)C=CCN6CC[C@]43[C@@H]65)C2)C1 [VINBLASTINE]
[Q] Hey, can you sort those compounds up there by GI50, smallest first? Enter labels, ranked according to the request.
[A] R, P, Q
